Recorded values, source patent US7176008B2.

Sequence of the target: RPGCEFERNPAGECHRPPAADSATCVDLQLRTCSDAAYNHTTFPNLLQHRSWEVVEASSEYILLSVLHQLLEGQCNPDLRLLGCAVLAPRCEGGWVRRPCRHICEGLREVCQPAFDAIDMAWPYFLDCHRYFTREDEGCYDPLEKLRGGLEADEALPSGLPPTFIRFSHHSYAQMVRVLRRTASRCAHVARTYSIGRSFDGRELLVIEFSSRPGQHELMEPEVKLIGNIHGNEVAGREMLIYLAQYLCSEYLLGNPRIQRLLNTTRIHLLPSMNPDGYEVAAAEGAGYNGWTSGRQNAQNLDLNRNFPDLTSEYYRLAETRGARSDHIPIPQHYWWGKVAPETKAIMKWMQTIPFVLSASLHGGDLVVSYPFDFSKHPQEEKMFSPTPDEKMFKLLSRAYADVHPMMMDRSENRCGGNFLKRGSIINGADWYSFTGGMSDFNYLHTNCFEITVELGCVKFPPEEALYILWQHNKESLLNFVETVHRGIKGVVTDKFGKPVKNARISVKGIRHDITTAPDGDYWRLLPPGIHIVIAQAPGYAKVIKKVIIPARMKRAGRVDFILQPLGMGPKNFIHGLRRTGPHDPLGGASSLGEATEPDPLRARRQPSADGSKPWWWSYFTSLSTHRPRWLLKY
pKi: −log10 of the molar value.

{"columns": ["COMPOUND", "pKi"],
 "data": [
  ["N=C(N)NCCSC(CC(=O)O)C(=O)O (stereo not shown)", 5.15]
]}

###

TEST_TARGET: most carboxypeptidases
DETAILS: read-out: Ki for most carboxypeptidases; all except CPE
pKi: −log10 of the molar value.
QUANTITY: pKi

{"columns": ["COMPOUND", "TEST_TARGET", "QUANTITY", "RESULT"],
 "data": [
  ["NCCCCCC(=O)O [ε-aminocaproic acid]", "most carboxypeptidases", "pKi", "≤ 3.00"]
]}

###

TEST_TARGET: CPE (Homo sapiens)
Sequence (P16870 43-450 limits assumed): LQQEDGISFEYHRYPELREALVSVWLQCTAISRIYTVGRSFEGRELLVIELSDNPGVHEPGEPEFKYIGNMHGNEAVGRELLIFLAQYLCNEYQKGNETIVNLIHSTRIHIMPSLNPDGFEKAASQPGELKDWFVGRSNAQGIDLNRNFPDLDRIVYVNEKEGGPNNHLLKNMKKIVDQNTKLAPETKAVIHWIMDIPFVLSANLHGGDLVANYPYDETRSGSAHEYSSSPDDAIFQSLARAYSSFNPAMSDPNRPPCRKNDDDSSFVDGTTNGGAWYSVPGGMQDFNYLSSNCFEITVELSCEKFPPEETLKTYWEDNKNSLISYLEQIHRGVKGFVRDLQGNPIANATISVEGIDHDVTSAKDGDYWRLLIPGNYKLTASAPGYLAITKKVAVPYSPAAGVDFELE
PROTOCOL_NOTES: biochemical
pIC50: −log10 of the molar value.

{"columns": ["COMPOUND", "TEST_TARGET", "pIC50"],
 "data": [
  ["NCCCCCC(=O)O [ε-aminocaproic acid]", "CPE (Homo sapiens)", 5.10]
]}

###

Let's go through some recorded Ki values for CPE (Homo sapiens, UniProt P16870) together.
QUANTITY: Ki (µM)

{"columns": ["COMPOUND", "QUANTITY", "NUMERIC_VALUE"],
 "data": [
  ["NCCCCCC(=O)O", "Ki", 8.2],
  ["N=C(N)NCCSC(CC(=O)O)C(=O)O (centres unmarked)", "Ki", 0.016]
]}

###

TEST_TARGET: UniProt P14384
Sequence (P14384 18-423 limits assumed): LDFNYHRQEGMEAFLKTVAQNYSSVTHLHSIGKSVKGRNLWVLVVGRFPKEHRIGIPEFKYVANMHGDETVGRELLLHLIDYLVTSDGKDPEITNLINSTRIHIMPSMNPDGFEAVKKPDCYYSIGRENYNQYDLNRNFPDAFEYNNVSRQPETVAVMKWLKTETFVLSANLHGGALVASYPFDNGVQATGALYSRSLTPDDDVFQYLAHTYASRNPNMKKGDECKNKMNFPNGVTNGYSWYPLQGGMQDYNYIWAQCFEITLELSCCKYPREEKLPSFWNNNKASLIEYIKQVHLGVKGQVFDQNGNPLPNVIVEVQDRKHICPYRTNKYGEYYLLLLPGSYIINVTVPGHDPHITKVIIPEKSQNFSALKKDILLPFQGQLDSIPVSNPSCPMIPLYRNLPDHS
pKi: −log10 of the molar value.

{"columns": ["COMPOUND", "pKi"],
 "data": [
  ["N=C(N)NCCSCC(CS)C(=O)O (racemic)", 8.52]
]}
